# Test system: 786-0 renal
# Measurement protocol: NCI tumour cell line growth inhibition, 48 h; in the data active means GI50 below about 0.43 µM; inactive means the rest
Please answer using one outcome listed in T = active, F = inactive

>  <Compound>
CCOC(=O)N[C@H]1CCc2c(Br)c(OC)c(OC)c(OC)c2-c2ccc(SC)c(=O)cc21

>  <Tested target>
786-0 renal

>  <Class name>
T

$$$$
>  <Compound>
CC1SC(c2c(Cl)cccc2Cl)N(NC(=O)C(O)c2ccccc2)C1=O (centres undefined)

>  <Tested target>
786-0 renal

>  <Class name>
F

$$$$
>  <Compound>
COC(=O)OCc1ccc2c(c1)C(=O)c1c-2n(CCCBr)c(=O)c2cc([N+](=O)[O-])ccc12

>  <Tested target>
786-0 renal

>  <Class name>
F

$$$$
>  <Compound>
COc1cc(C2=NN(c3ccc(S(N)(=O)=O)cc3)C(c3ccc(Cl)cc3)C2)cc(OC)c1OC (centres undefined)

>  <Tested target>
786-0 renal

>  <Class name>
F

$$$$
>  <Compound>
NC(=S)N/N=C\c1nccc2c(N)cccc12

>  <Tested target>
786-0 renal

>  <Class name>
T

$$$$
>  <Compound>
C=CCC(N[C@H](CO)c1ccccc1)c1cn(S(=O)(=O)c2ccc(C)cc2)c2ccccc12 (some centres undefined)

>  <Tested target>
786-0 renal

>  <Class name>
F

$$$$
>  <Compound>
O=C1c2ccn(CCCCN3CCCCC3)c2C(=O)c2c1c(O)c1ccccc1c2O

>  <Tested target>
786-0 renal

>  <Class name>
F

$$$$
>  <Compound>
O=C(CNc1ncco1)Nc1ccc(S(=O)(=O)c2ccc(NC(=O)CNc3ncco3)cc2)cc1

>  <Tested target>
786-0 renal

>  <Class name>
F

$$$$

Next item in the queue.
(Q) Give the logged outcome of this assay for the following compound: `COc1ccc(C(=O)COc2cccc(/C=C3\CSc4ccc(Cl)cc4C3=O)c2)cc1`
(A) F

----------
# Tested on: SK-MEL-5 melanoma
# Measurement protocol: NCI tumour cell line growth inhibition, 48 h
Readout name: TGI (µM)
Return type: number; implicit unit µM.

Here's what some known entries look like.
>  <Compound>
Cc1cccc2c1O/C(=C\c1ccc([N+](=O)[O-])o1)C2=O

>  <Numeric value>
2.42

$$$$
>  <Compound>
CCOC(=O)N[C@H]1CCc2c(Br)c(OC)c(OC)c(OC)c2-c2ccc(SC)c(=O)cc21

>  <Numeric value>
0.0237

$$$$

(Q) Given the compound COC(=O)c1ccccc1C1CN=NC12Cc1cc(C)c(C)cc1C2=O (stereo not given) , what is its reported TGI?
(A) 38.1

(Q) Consider next the compound `OCC#Cc1ccccc1C#Cc1ccc(C#Cc2ccccc2C#CCO)s1` in the same way.
(A) 31.2

(Q) Please answer likewise for `O=C(CNc1ncco1)Nc1ccc(S(=O)(=O)c2ccc(NC(=O)CNc3ncco3)cc2)cc1`
(A) 2.88

----------
# Tested on: SN12C renal
# Measurement protocol: NCI tumour cell line growth inhibition, 48 h
GI50 overview

Here are 2 compounds together with their reported answers.
>  <Compound>
CC1SC(c2c(Cl)cccc2Cl)N(NC(=O)C(O)c2ccccc2)C1=O (stereo not drawn)

>  <Result>
> 100 µM

$$$$
>  <Compound>
CCCCCCC#CC#Cc1cccc(=O)o1

>  <Result>
1.31 µM

$$$$

Now let's try a different one.
(Q) Please report the recorded GI50 for `CO[C@@]12C[C@H]3[C@@H]([C@@H](O)[C@@H](OC(=O)/C=C/c4ccccc4)[C@@]4(O)C(C)(C)CCC[C@]34C)[C@@H](C)C1=CC(=O)O2` .
(A) 4.84 µM
